Tested on: T-47D breast
Test: NCI-60 one-dose screen, 48 h (100 = growth as untreated, 0 = no growth, -100 = all killed)
Settings: 10 µM unless noted
The panel holds about 83,000 compounds, 20% with a hit somewhere; the sample as a whole holds those more often.
Below, each of the compounds is paired with its reported growth value.
readout-type: growth (%)

• COC(=O)c1nc(-c2ccccc2)oc1S(=O)(=O)n1nc(C)cc1N = 22.5
• Nn1c(SCC(=O)Nc2ccc(Cl)cc2)nnc1-c1cc(F)c(Cl)cc1Cl = 67.3
• CC(=O)c1c(OCC#N)ccc2c(C)cc(=O)oc12 = 97.9
• COc1cc(/C=C/C(=O)/C=C/c2cc3ccc(Cl)cc3[nH]c2=O)ccc1O = 88.8
